assay: solvent given as SMILES; settings: in c1ccccc1
measuredAttribute: absorption maximum
Record the result as a number with its unit.

Using the record for CCOC(=O)c1sc2nc(C)c(CC)c(C#N)c2c1N , report its absorption maximum.
412 nm

Using the record for CC(C)[Si]1(C(C)C)c2cc(C=O)ccc2-c2ccc(N(C)C)cc21 , report its absorption maximum.
392 nm

Using the record for CCC1=C(C)C(=O)n2c1cc1c(c(C)c(C(=O)OCC(C)C)n1CC(C)C)c2=O , report its absorption maximum.
397 nm

Using the record for CCCCCCCC1=C(C)C(=O)n2c1cc1[nH]c(C(=O)OC)c(C)c1c2=O , report its absorption maximum.
395 nm

Using the record for CCC1(CC)c2cc(C=O)ccc2-c2ccc(N(C)C)cc21 , report its absorption maximum.
388 nm

Using the record for CCOC(=O)CCCn1c(C(=O)OC)c(C)c2c(=O)n3c(cc21)C(CC)=C(C)C3=O , report its absorption maximum.
397 nm

Using the record for CCOC(=O)c1sc2nc(C)c(C)c(C#N)c2c1N , report its absorption maximum.
406 nm

Using the record for O=c1oc2c(ccc3ccccc32)nc1-c1ccccc1 , report its absorption maximum.
396 nm

These measurements were taken from the Deep4Chem optical property database.
